The entries below come with measured YAP1 (% UTC) values attached.
System: Yap1 mRNA
assayDetails: Antisense inhibition of human Yap1 in A-431 cells by cEt gapmers, single dose (Example 3, RTS36584)
Format: cell-based
conditionSet: Table 9; A-431 cells, 5,000 cells per well, free uptake, 2,000 nM, approximately 48 hours; RTS36584; normalized to RIBOGREEN; Yap1 mRNA relative to untreated control cells
Strand notation (5' to 3'): a small letter for the sugar, then the base; units joined by * are phosphorothioate-linked, units joined directly phosphodiester-linked; [ ] holds rarer units or linkages, { } end groups; capitals alone tell only the bases. k = constrained ethyl (cEt); [5mC] = 5-methylcytosine; d = 2'-deoxy (DNA)
Respond with the bare value in % UTC.

Some entries whose results are on file:
>  <substance>
958676 (kG*kA*kA*d[5mC]*dT*dT*dA*dG*dT*dT*d[5mC]*d[5mC]*d[5mC]*kT*kA*kT; antisense) [Compound 958676]

>  <testTarget>
Yap1 mRNA

>  <resultUnits>
% UTC

>  <experimentalValue>
34

$$$$
>  <substance>
958666 (kG*kA*kA*dA*dA*dG*dG*dG*d[5mC]*dA*dA*dT*d[5mC]*kA*kT*kA; antisense) [Compound 958666]

>  <testTarget>
Yap1 mRNA

>  <resultUnits>
% UTC

>  <experimentalValue>
52

$$$$
>  <substance>
958496 (k[5mC]*k[5mC]*kT*dT*dA*dT*dA*dA*dG*d[5mC]*dT*d[5mC]*d[5mC]*kT*kA*kA; antisense) [Compound 958496]

>  <testTarget>
Yap1 mRNA

>  <resultUnits>
% UTC

>  <experimentalValue>
3

$$$$
>  <substance>
958436 (antisense kT*k[5mC]*k[5mC]*d[5mC]*dT*dT*dG*dA*d[5mC]*dG*dG*dA*dG*kG*k[5mC]*k[5mC]) [Compound 958436]

>  <testTarget>
Yap1 mRNA

>  <resultUnits>
% UTC

>  <experimentalValue>
124

$$$$
>  <substance>
958581 (k[5mC]*kT*kG*d[5mC]*dT*dG*dA*dT*dA*dT*dA*dT*dA*kA*kG*kA; antisense) [Compound 958581]

>  <testTarget>
Yap1 mRNA

>  <resultUnits>
% UTC

>  <experimentalValue>
26

$$$$
>  <substance>
958746 (antisense kG*kT*kT*dA*dT*d[5mC]*d[5mC]*dT*d[5mC]*dT*dA*dT*dA*kG*kT*k[5mC]) [Compound 958746]

>  <testTarget>
Yap1 mRNA

>  <resultUnits>
% UTC

>  <experimentalValue>
22

$$$$
>  <substance>
958711 (antisense k[5mC]*k[5mC]*kA*dA*dA*dT*dA*dA*dG*dG*dA*dT*d[5mC]*kT*kG*kT) [Compound 958711]

>  <testTarget>
Yap1 mRNA

>  <resultUnits>
% UTC

>  <experimentalValue>
34

$$$$
>  <substance>
958551 (k[5mC]*kT*k[5mC]*d[5mC]*dT*dG*dT*dA*dG*dA*d[5mC]*dA*d[5mC]*kA*kT*kA; antisense) [Compound 958551]

>  <testTarget>
Yap1 mRNA

>  <resultUnits>
% UTC

>  <experimentalValue>
5

$$$$

Look at this substance and give its reported YAP1 (% UTC). 958751 (antisense kT*k[5mC]*kA*dA*dT*dG*d[5mC]*dA*dG*dG*dA*dT*dT*k[5mC]*k[5mC]*kA) [Compound 958751] 30

YAP1 (% UTC) for 958451 (antisense k[5mC]*kA*k[5mC]*dG*dA*dT*d[5mC]*dT*dG*dA*dT*dG*d[5mC]*k[5mC]*k[5mC]*kG) [Compound 958451] ? 10

Field request: YAP1 (% UTC) | item: 958646 (kT*kA*kT*dT*dA*dT*dA*dT*dG*dG*d[5mC]*dT*dA*kA*kG*k[5mC]; antisense) [Compound 958646] 26

Param item = 958776 (antisense kG*kG*kT*dA*d[5mC]*dT*d[5mC]*dT*d[5mC]*d[5mC]*dT*dT*d[5mC]*kA*kG*kA) [Compound 958776] ; retrieve measured YAP1 (% UTC). 94

Consider the substance 958791 (antisense k[5mC]*kA*kT*dA*dA*dG*dA*dA*dA*dA*dG*dA*d[5mC]*kG*kA*k[5mC]) [Compound 958791] and give its measured YAP1 (% UTC). 123

Fill in the blank: the reported YAP1 (% UTC) of 958606 (antisense kT*k[5mC]*k[5mC]*dA*d[5mC]*d[5mC]*dT*dG*dA*dG*d[5mC]*dA*d[5mC]*kT*k[5mC]*kA) [Compound 958606] is ____. 31

Fill in: YAP1 (% UTC) of 958641 (antisense kA*kG*k[5mC]*dT*dA*d[5mC]*dA*dG*dA*dG*d[5mC]*dT*dT*kA*kA*k[5mC]) [Compound 958641] is ___ 102

# input substance: 958716 (antisense kA*kT*kG*dG*dA*d[5mC]*dT*dG*dT*dA*dT*dG*d[5mC]*kA*kG*k[5mC]) [Compound 958716] ; wanted: its YAP1 (% UTC) 84

Could you share which YAP1 (% UTC) value was measured for 958636 (antisense k[5mC]*k[5mC]*kG*d[5mC]*dA*d[5mC]*d[5mC]*dG*d[5mC]*dG*dG*d[5mC]*d[5mC]*k[5mC]*kG*kG) [Compound 958636] ? 126

Fill blank: measured YAP1 (% UTC) of the substance 958761 (antisense kA*kG*kT*d[5mC]*dT*d[5mC]*dA*dA*d[5mC]*dA*dA*d[5mC]*d[5mC]*kT*kT*k[5mC]) [Compound 958761] is ____. 7

YAP1 (% UTC) for 958736 (antisense kG*kT*kG*dA*dT*dA*dT*dG*dG*dA*dT*dT*d[5mC]*kT*kG*kT) [Compound 958736] ? 3

Which value of YAP1 (% UTC) has been reported for 715483 (antisense k[5mC]*kT*k[5mC]*dT*dT*dT*dG*dG*dA*dA*dA*d[5mC]*d[5mC]*kA*kT*kT) [Compound 715483] in the records? 1

Query: YAP1 (% UTC); subject: 958671 (k[5mC]*kA*kT*dT*dA*dT*dA*dT*dG*dG*d[5mC]*dA*d[5mC]*k[5mC]*k[5mC]*kA; antisense) [Compound 958671] 19

Consider the substance shown here: 958486 (kT*kT*kA*dG*dA*dG*d[5mC]*d[5mC]*dA*dA*d[5mC]*dT*dG*kT*kG*kA; antisense) [Compound 958486] What is its recorded YAP1 (% UTC)? 9

Suppose we examine the substance 958561 (kA*k[5mC]*kA*d[5mC]*dA*dG*dA*dG*dG*dT*dG*d[5mC]*dT*kA*kG*k[5mC]; antisense) [Compound 958561] ; what YAP1 (% UTC) value has been reported? 48
